read-out: Secreted IgG (sIgG), gene 3500; test: BSK_BT_sIgG: BioMAP Diversity Plus: BT Assay for Secreted IgG (sIgG) Biomarker Activity (AID 2284226); settings: primary human B cells with PBMC
Activity calls are given as the source filed them. The calls were made as follows: active = hit-call score of the fitted dose curve at least 0.9, where 1 is the maximum; inactive = score below 0.9.
Thanks in advance; please answer with one of these: active, inactive

Some entries whose results are on file:
Record request — test call for Cc1cc(C)c(O)c(C(C)(C)C)c1
inactive

Please state the recorded outcome for this compound: O=C(O)C(F)(F)C(F)(F)C(F)(F)C(F)(F)C(F)(F)C(F)(F)C(F)F
inactive

Others:
Hi, do you know how O=C(O)C(F)(F)OC(F)(F)C(F)(F)OC(F)(F)C(F)(F)OC(F)(F)F came out in this test?
inactive

src = PubChem BioAssay (EPA / NIEHS)
